# Target or test system: human κ-opioid receptor (OPRK1) (Homo sapiens)
# Sequence (P41145 whole entry): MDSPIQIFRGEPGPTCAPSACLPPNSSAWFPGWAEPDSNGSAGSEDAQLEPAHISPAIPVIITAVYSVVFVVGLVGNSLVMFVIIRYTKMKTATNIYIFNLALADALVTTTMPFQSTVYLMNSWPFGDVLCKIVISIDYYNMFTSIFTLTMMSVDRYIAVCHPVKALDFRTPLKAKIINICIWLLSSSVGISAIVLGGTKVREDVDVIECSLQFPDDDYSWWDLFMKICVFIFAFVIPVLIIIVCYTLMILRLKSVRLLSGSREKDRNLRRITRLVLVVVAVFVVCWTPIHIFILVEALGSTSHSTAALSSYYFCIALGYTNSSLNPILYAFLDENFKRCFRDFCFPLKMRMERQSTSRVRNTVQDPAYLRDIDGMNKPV
# Assay text: cell-based
# Cond: KOR cAMP Agonist Potency ± SEM
Measurement type: pEC50
// field semantics: pEC50 = negative decimal log of concentration (mol/L)

Param readout = pEC50; param system = human κ-opioid receptor (OPRK1) (Homo sapiens); param query = O=C1CCC2C3Cc4ccc(O)c5c4[C@@]2(CCN3CCc2ccc(C(F)(F)F)cc2)[C@H]1O5 (stereo partly shown) ; response: value
7.01

Param readout = pEC50; param system = human κ-opioid receptor (OPRK1) (Homo sapiens); param query = O=C1CCC2C3Cc4ccc(O)c5c4[C@@]2(CCN3CCc2ccccc2F)[C@H]1O5 (stereo partly shown) ; response: value
7.70

Param readout = pEC50; param system = human κ-opioid receptor (OPRK1) (Homo sapiens); param query = N#CCN1CC[C@]23c4c5ccc(O)c4O[C@H]2C(=O)CCC3C1C5 (stereo partly shown) ; response: value
6.96

Param readout = pEC50; param system = human κ-opioid receptor (OPRK1) (Homo sapiens); param query = O=C1CCC2C3Cc4ccc(O)c5c4[C@@]2(CCN3CCc2c(Cl)cccc2Cl)[C@H]1O5 (stereo partly shown) ; response: value
5.73

Param readout = pEC50; param system = human κ-opioid receptor (OPRK1) (Homo sapiens); param query = O=C1CCC2C3Cc4ccc(O)c5c4[C@@]2(CCN3CCc2cccc(F)c2)[C@H]1O5 (stereo partly shown) ; response: value
7.25

Param readout = pEC50; param system = human κ-opioid receptor (OPRK1) (Homo sapiens); param query = O=C1CCC2C3Cc4ccc(O)c5c4[C@@]2(CCN3CCc2ccc(F)cc2)[C@H]1O5 (stereo partly shown) ; response: value
7.70

Param readout = pEC50; param system = human κ-opioid receptor (OPRK1) (Homo sapiens); param query = O=C1CCC2C3Cc4ccc(O)c5c4[C@@]2(CCN3CCc2ccc([N+](=O)[O-])cc2)[C@H]1O5 (stereo partly shown) ; response: value
7.13
